The compounds listed here are annotated with their log10 IC50.
tested-on: C5 (Homo sapiens, UniProt P01031)
Sequence (P01031 19-1676): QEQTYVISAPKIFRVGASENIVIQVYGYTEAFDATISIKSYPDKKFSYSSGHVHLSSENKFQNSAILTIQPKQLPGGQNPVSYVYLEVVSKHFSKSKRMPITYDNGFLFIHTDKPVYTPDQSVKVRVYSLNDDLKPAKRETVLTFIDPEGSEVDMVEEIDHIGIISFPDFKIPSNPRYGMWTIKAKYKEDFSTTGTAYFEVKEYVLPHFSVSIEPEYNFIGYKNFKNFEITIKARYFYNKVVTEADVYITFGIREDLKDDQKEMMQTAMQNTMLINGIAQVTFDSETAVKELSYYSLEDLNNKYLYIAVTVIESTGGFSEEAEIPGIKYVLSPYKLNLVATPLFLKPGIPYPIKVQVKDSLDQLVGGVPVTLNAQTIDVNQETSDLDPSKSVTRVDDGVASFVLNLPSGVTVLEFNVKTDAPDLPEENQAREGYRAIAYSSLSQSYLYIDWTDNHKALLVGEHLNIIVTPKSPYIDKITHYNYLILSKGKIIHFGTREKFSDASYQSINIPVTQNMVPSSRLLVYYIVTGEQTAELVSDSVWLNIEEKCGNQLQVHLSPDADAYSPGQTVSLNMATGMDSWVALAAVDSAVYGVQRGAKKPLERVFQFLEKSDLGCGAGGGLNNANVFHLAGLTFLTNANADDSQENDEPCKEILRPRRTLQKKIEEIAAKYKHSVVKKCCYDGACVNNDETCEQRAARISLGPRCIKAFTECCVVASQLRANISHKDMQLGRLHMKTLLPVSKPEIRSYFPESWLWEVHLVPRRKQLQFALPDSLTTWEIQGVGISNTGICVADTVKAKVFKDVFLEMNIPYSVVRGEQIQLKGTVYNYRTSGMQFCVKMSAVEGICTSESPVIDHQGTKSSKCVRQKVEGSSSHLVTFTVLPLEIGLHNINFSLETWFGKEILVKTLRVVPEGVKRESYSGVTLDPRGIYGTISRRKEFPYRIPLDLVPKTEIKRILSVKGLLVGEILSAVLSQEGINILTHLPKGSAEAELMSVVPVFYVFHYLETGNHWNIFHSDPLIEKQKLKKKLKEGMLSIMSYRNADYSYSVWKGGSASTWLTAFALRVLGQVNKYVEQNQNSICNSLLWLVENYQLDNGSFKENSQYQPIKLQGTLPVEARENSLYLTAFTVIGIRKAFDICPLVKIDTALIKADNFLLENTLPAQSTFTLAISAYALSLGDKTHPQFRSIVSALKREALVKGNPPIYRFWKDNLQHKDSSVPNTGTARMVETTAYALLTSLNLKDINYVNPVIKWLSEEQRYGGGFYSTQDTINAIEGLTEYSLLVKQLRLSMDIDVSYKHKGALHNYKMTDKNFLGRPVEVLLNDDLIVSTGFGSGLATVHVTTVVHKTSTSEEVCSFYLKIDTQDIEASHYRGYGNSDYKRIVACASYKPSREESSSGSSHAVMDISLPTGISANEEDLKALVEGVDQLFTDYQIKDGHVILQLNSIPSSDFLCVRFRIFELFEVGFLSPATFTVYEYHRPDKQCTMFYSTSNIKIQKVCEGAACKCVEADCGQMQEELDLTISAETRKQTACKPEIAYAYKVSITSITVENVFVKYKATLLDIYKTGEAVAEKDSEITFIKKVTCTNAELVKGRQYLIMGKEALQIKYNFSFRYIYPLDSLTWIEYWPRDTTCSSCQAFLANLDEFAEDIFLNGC
experimental-protocol: Competitive fluorescence polarization assay with probe R3076
Format: binding
Design: purchased Complement Technology, Tyler, Tex
condition-summary: competition with probe R3076 25 nM, C5 50 nM, 60 min at 25° C.; experiment 1; read-out: IC50 nM, Exp 1
Starred links: 1 amine or outer side, 2 acyl side, 3 side chain; linkers in the order of their positions; H or OH if unused. Positions of bridges follow the written chain, without caps; N, C: chain ends. Non-standard residues stand in square brackets, D forms with d. Residues, ends and D or L forms follow the SMILES beside them. Trp(7-aza) = N[C@@H](Cc1c[nH]c2ncccc12)C(=O)O; mXylylene = c1cc(C[*:1])cc(C[*:2])c1; pXylylene = c1cc(C[*:2])ccc1C[*:1]; Phg = N[C@H](C(=O)O)c1ccccc1; Tle = CC(C)(C)[C@H](N)C(=O)O; NMeS = CN[C@@H](CO)C(=O)O; Nva = CCC[C@H](N)C(=O)O
Lab note - IC50 converted to log10 from values in nM.

Some solved entries appear below for comparison.
compound	experimental-readout	endpoint-result
CCC[C@H](NC(=O)[C@@H]1CCCN1C(=O)[C@H](CCC)NC(=O)[C@@H]1CSCc2cccc(c2)CSC[C@H](NC(C)=O)C(=O)N[C@@H](c2ccccc2)C(=O)N[C@@H]([C@@H](C)O)C(=O)N[C@@H](Cc2c[nH]c3ncccc23)C(=O)N[C@@H](CCC(=O)O)C(=O)N[C@@H](Cc2ccc(O)cc2)C(=O)N(C)[C@@H](CO)C(=O)N[C@@H](Cc2c[nH]cn2)C(=O)N1)C(N)=O [Compound R3014] (Ac-C[Phg]T[Trp(7-aza)]EY[NMeS]HC[Nva]P[Nva]-NH2; linker 1-9 via mXylylene)	log10 IC50	3.78
CSCC[C@H](N)C(=O)N[C@H]1CSCc2cccc(c2)CSC[C@@H](C(=O)N[C@@H](CC(=O)O)C(=O)N[C@H](C(=O)N[C@@H](Cc2ccc(O)cc2)C(=O)N[C@@H](Cc2c[nH]c3ccccc23)C(=O)N[C@@H](CCC(=O)O)C(N)=O)C(C)C)NC(=O)[C@H](Cc2ccccc2)NC(=O)[C@H](CCCNC(=N)N)NC(=O)[C@H](CCC(=O)O)NC(=O)[C@H](C(C)C)NC1=O [Compound R3043, [mXylyl(2,7)]M-C-V-E-R-F-C-D-V-Y-W-E-NE2] (H-MCVERFCDVYWE-NH2; linker 2-7 via mXylylene)	log10 IC50	3.64

Request: Provide measured log10 IC50 value, entry: CCC[C@H](NC(C)=O)C(=O)N[C@H]1CSCc2cccc(c2)CSC[C@@H](C(=O)N[C@@H](CCC)C(=O)N2CCC[C@H]2C(N)=O)NC(=O)[C@H](Cc2c[nH]cn2)NC(=O)[C@H](CO)N(C)C(=O)[C@H](Cc2ccc(O)cc2)NC(=O)[C@H](CCC(=O)O)NC(=O)[C@H](Cc2c[nH]c3ncccc23)NC(=O)[C@H]([C@@H](C)O)NC(=O)[C@H](c2ccccc2)NC1=O [Compound R3011] (Ac-[Nva]C[Phg]T[Trp(7-aza)]EY[NMeS]HC[Nva]P-NH2; linker 2-10 via mXylylene)
Result: 2.47

Request: Provide measured log10 IC50 value, entry: CCC[C@H](NC(=O)[C@@H]1CSCc2ccc(cc2)CSC[C@H](NC(=O)[C@H](CCC)NC(C)=O)C(=O)N[C@@H](c2ccccc2)C(=O)N[C@@H]([C@@H](C)O)C(=O)N[C@@H](Cc2c[nH]c3ncccc23)C(=O)N[C@@H](CCC(=O)O)C(=O)N[C@@H](Cc2ccc(O)cc2)C(=O)N(C)[C@@H](CO)C(=O)N[C@@H](Cc2c[nH]cn2)C(=O)N1)C(N)=O [Compound R3050] (Ac-[Nva]C[Phg]T[Trp(7-aza)]EY[NMeS]HC[Nva]-NH2; linker 2-10 via pXylylene)
Result: 2.43

Request: Provide measured log10 IC50 value, entry: CCC[C@H](NC(C)=O)C(=O)N[C@@H](CS)C(=O)N[C@@H](Cc1ccc(O)cc1)C(=O)N[C@@H](CCC(=O)O)C(=O)N[C@@H](CC(N)=O)C(=O)N[C@H](C(=O)N[C@@H](Cc1ccc(O)cc1)C(=O)N[C@@H](Cc1c[nH]c2ncccc12)C(=O)N[C@@H](CCC(=O)O)C(=O)N[C@@H](Cc1ccc(O)cc1)C(=O)N1CCC[C@H]1C(=O)N[C@H](C(=O)N1CCC[C@H]1C(N)=O)c1ccccc1)C(C)(C)C [Compound R3003] (Ac-[Nva]CYEN[Tle]Y[Trp(7-aza)]EYP[Phg]P-NH2)
Result: 1.86

###

tested-on: C5 (Homo sapiens)
experimental-protocol: Human hemolysis assay (RBC lysis assay using complete human sera)
Type: cell-based
Set-up: with complete human sera (Complement Technology, Tyler Tex.) and polypeptides; tissue Complement Technology, Tyler Tex; host or cells: complete human serum
condition-summary: inhibition of lysis of antibody-sensitized sheep erythrocytes, complete human sera
Starred links: 1 amine or outer side, 2 acyl side, 3 side chain; linkers in the order of their positions; H or OH if unused. Positions of bridges follow the written chain, without caps; N, C: chain ends. Non-standard residues stand in square brackets, D forms with d. Residues, ends and D or L forms follow the SMILES beside them. Trp(7-aza) = N[C@@H](Cc1c[nH]c2ncccc12)C(=O)O; mXylylene = c1cc(C[*:1])cc(C[*:2])c1; pXylylene = c1cc(C[*:2])ccc1C[*:1]; Phg = N[C@H](C(=O)O)c1ccccc1; Tle = CC(C)(C)[C@H](N)C(=O)O; NMeS = CN[C@@H](CO)C(=O)O; Nva = CCC[C@H](N)C(=O)O
The compounds listed here are annotated with their IC50.
Numbers only; they are read as nM.

Some solved entries appear below for comparison.
compound	units	IC50
CCC[C@H](NC(=O)[C@@H]1CSCc2ccc(cc2)CSC[C@H](NC(=O)[C@H](CCC)NC(C)=O)C(=O)N[C@@H](c2ccccc2)C(=O)N[C@@H]([C@@H](C)O)C(=O)N[C@@H](Cc2c[nH]c3ncccc23)C(=O)N[C@@H](CCC(=O)O)C(=O)N[C@@H](Cc2ccc(O)cc2)C(=O)N2CCC[C@H]2C(=O)N[C@@H](Cc2c[nH]cn2)C(=O)N1)C(N)=O [Compound R3065] (Ac-[Nva]C[Phg]T[Trp(7-aza)]EYPHC[Nva]-NH2; linker 2-10 via pXylylene)	nM	394
CCC[C@H](NC(C)=O)C(=O)N[C@H]1CSCc2cccc(c2)CSC[C@@H](C(=O)N(C)[C@@H](CO)C(=O)N[C@H](C(=O)N[C@@H](CCCCN)C(=O)N[C@@H](Cc2c[nH]c3ncccc23)C(=O)N[C@@H](CCC(=O)O)C(=O)N[C@@H](Cc2ccc(O)cc2)C(N)=O)C(C)(C)C)NC(=O)[C@H](Cc2ccc(O)cc2)NC(=O)[C@H](c2ccccc2)NC(=O)[C@H](CCC(=O)O)NC(=O)[C@H](CCCCN)NC1=O [Compound R3007] (Ac-[Nva]CKE[Phg]YC[NMeS][Tle]K[Trp(7-aza)]EY-NH2; linker 2-7 via mXylylene)	nM	314

The record that follows has no IC50 shown yet.
Request: Provide measured IC50 value, entry: CC(=O)N[C@H]1CSCc2cccc(c2)CSC[C@@H](C(=O)N[C@@H](CC(=O)O)C(=O)N[C@H](C(=O)N[C@@H](Cc2ccc(O)cc2)C(=O)N[C@@H](Cc2c[nH]c3ccccc23)C(=O)N[C@@H](CCC(=O)O)C(=O)N[C@@H](Cc2ccccc2)C(N)=O)C(C)(C)C)NC(=O)[C@H](Cc2ccccc2)NC(=O)[C@H](CCCNC(=N)N)NC(=O)[C@H](CCC(=O)O)NC(=O)[C@H](C(C)C)NC1=O [Compound R3138] (Ac-CVERFCD[Tle]YWEF-NH2; linker 1-6 via mXylylene)
Result: 87.2

###

The compounds listed here are annotated with their IC50.
tested-on: C5 (Homo sapiens)
experimental-protocol: Competitive fluorescence polarization assay with probe R3076
Format: binding
Parameters: purchased Complement Technology, Tyler, Tex
condition-summary: competition with probe R3076 25 nM, C5 50 nM, 60 min at 25° C.; experiment 2; read-out: IC50 nM, Exp 2
Starred links: 1 amine or outer side, 2 acyl side, 3 side chain; linkers in the order of their positions; H or OH if unused. Positions of bridges follow the written chain, without caps; N, C: chain ends. Non-standard residues stand in square brackets, D forms with d. Residues, ends and D or L forms follow the SMILES beside them. Trp(7-aza) = N[C@@H](Cc1c[nH]c2ncccc12)C(=O)O; mXylylene = c1cc(C[*:1])cc(C[*:2])c1; pXylylene = c1cc(C[*:2])ccc1C[*:1]; Phg = N[C@H](C(=O)O)c1ccccc1; Tle = CC(C)(C)[C@H](N)C(=O)O; NMeS = CN[C@@H](CO)C(=O)O; Nva = CCC[C@H](N)C(=O)O
Could you give the number and then its unit, please?

compound	IC50
CCC[C@H](NC(=O)[C@@H]1CCCN1C(=O)[C@H](CCC)NC(=O)[C@@H]1CSCc2cccc(c2)CSC[C@H](NC(C)=O)C(=O)N[C@@H](c2ccccc2)C(=O)N[C@@H]([C@@H](C)O)C(=O)N[C@@H](Cc2c[nH]c3ncccc23)C(=O)N[C@@H](CCC(=O)O)C(=O)N[C@@H](Cc2ccc(O)cc2)C(=O)N(C)[C@@H](CO)C(=O)N[C@@H](Cc2c[nH]cn2)C(=O)N1)C(N)=O [Compound R3014] (Ac-C[Phg]T[Trp(7-aza)]EY[NMeS]HC[Nva]P[Nva]-NH2; linker 1-9 via mXylylene)	7580 nM
CCC[C@H](NC(=O)[C@@H]1CSCc2ccc(cc2)CSC[C@H](NC(=O)[C@H](CCC)NC(C)=O)C(=O)N[C@@H](c2ccccc2)C(=O)N[C@@H]([C@@H](C)O)C(=O)N[C@@H](Cc2c[nH]c3ncccc23)C(=O)N[C@@H](CCC(=O)O)C(=O)N[C@@H](Cc2ccc(O)cc2)C(=O)N(C)[C@@H](CO)C(=O)N[C@@H](Cc2c[nH]cn2)C(=O)N1)C(N)=O [Compound R3050] (Ac-[Nva]C[Phg]T[Trp(7-aza)]EY[NMeS]HC[Nva]-NH2; linker 2-10 via pXylylene)	293 nM
CSCC[C@H](N)C(=O)N[C@H]1CSCc2cccc(c2)CSC[C@@H](C(=O)N[C@@H](CC(=O)O)C(=O)N[C@H](C(=O)N[C@@H](Cc2ccc(O)cc2)C(=O)N[C@@H](Cc2c[nH]c3ccccc23)C(=O)N[C@@H](CCC(=O)O)C(N)=O)C(C)C)NC(=O)[C@H](Cc2ccccc2)NC(=O)[C@H](CCCNC(=N)N)NC(=O)[C@H](CCC(=O)O)NC(=O)[C@H](C(C)C)NC1=O [Compound R3043, [mXylyl(2,7)]M-C-V-E-R-F-C-D-V-Y-W-E-NE2] (H-MCVERFCDVYWE-NH2; linker 2-7 via mXylylene)	4120 nM
CCC[C@H](NC(C)=O)C(=O)N[C@H]1CSCc2cccc(c2)CSC[C@@H](C(=O)N[C@@H](CCC)C(=O)N2CCC[C@H]2C(N)=O)NC(=O)[C@H](Cc2c[nH]cn2)NC(=O)[C@H](CO)N(C)C(=O)[C@H](Cc2ccc(O)cc2)NC(=O)[C@H](CCC(=O)O)NC(=O)[C@H](Cc2c[nH]c3ncccc23)NC(=O)[C@H]([C@@H](C)O)NC(=O)[C@H](c2ccccc2)NC1=O [Compound R3011] (Ac-[Nva]C[Phg]T[Trp(7-aza)]EY[NMeS]HC[Nva]P-NH2; linker 2-10 via mXylylene)	261 nM

The record that follows has no IC50 shown yet.
Request: Provide measured IC50 value, entry: CCC[C@H](NC(C)=O)C(=O)N[C@@H](CS)C(=O)N[C@@H](Cc1ccc(O)cc1)C(=O)N[C@@H](CCC(=O)O)C(=O)N[C@@H](CC(N)=O)C(=O)N[C@H](C(=O)N[C@@H](Cc1ccc(O)cc1)C(=O)N[C@@H](Cc1c[nH]c2ncccc12)C(=O)N[C@@H](CCC(=O)O)C(=O)N[C@@H](Cc1ccc(O)cc1)C(=O)N1CCC[C@H]1C(=O)N[C@H](C(=O)N1CCC[C@H]1C(N)=O)c1ccccc1)C(C)(C)C [Compound R3003] (Ac-[Nva]CYEN[Tle]Y[Trp(7-aza)]EYP[Phg]P-NH2)
Result: 64.1 nM
